targetDesc: truncated PI3Kα (p110α/iSH2 p85α), PI3KA_Act (Homo sapiens (Human), UniProt P42336)
Sequence (P42336 whole entry, the tested form may be a part): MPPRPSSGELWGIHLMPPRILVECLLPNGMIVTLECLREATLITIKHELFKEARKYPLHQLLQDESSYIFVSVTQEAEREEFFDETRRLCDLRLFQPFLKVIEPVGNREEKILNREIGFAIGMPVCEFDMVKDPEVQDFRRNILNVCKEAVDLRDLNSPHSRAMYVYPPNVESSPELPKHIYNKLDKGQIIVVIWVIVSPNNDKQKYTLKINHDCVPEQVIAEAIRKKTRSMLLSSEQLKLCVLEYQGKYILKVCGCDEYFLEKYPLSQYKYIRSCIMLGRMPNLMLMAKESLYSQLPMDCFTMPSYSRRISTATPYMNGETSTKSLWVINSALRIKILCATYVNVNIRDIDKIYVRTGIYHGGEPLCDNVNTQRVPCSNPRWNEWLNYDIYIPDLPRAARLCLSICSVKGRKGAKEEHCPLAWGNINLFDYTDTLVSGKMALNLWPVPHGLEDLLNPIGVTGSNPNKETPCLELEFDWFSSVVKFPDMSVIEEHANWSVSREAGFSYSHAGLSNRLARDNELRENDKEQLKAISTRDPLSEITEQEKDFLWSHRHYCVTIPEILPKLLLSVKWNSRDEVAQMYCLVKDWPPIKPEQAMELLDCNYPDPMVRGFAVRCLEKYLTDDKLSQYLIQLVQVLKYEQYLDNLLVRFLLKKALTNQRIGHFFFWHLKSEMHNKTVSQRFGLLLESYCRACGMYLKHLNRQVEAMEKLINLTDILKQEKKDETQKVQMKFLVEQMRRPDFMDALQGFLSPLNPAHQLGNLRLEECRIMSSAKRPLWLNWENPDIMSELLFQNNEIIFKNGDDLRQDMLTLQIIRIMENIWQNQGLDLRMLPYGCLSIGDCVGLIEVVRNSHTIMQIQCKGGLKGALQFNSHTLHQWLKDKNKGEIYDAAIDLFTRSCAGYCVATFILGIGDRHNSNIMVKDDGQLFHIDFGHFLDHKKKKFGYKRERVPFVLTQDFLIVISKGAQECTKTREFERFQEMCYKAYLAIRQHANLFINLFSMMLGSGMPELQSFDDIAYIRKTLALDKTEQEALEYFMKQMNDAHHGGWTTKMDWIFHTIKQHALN
methodDescription: PI3Kα biochemical kinase assay, fluorescence polarization format (PI3KA_Act)
conditionsUsed: 0.5 nM p110α/iSH2 p85, 1 mM ATP, 30 μM PIP2, 15-min preincubation; Morrison equation fit; read-out: PI3KA_Act Ki
pKi: −log10 of the molar value.
I'd be grateful if you could share measured pKi for these entries.

compound Nc1ncc(-c2cc(N[C@@]3(CO)CCN(C(=O)C4(F)CC4)C3)nc(N3CCOCC3)n2)cn1 , pKi observed: > 10.74

compound Nc1ncc(-c2cc(N[C@@]3(CO)CCN(C(=O)OC4CC4)C3)nc(N3CCOCC3)n2)cn1 , pKi observed: > 10.74

compound C[C@H]1COCCN1c1nc(N[C@@]2(CO)CCN(C(=O)OC(C)(C)C)C2)cc(-c2cnc(N)nc2)n1 , pKi observed: > 10.74

---

I'd be grateful if you could share measured Ki for these entries.
targetDesc: truncated PI3Kα (p110α/iSH2 p85α), PI3KA_Act (Homo sapiens (Human), UniProt P42336)
methodDescription: PI3Kα biochemical kinase assay, fluorescence polarization format (PI3KA_Act)
conditionsUsed: 0.5 nM p110α/iSH2 p85, 1 mM ATP, 30 μM PIP2, 15-min preincubation; Morrison equation fit; read-out: PI3KA_Act Ki

compound CCOC(=O)N1CC[C@](CO)(Nc2cc(-c3cnc(N)nc3)nc(N3CCOC[C@@H]3C)n2)C1 [Example 64] , Ki observed: < 0.018 nM

compound COC(=O)N1CC[C@](CO)(Nc2cc(-c3cnc(N)nc3)nc(N3CCOC[C@@H]3C)n2)C1 [Example 65] , Ki observed: < 0.018 nM

compound CN(c1cc(-c2cnc(N)nc2)nc(N2CCOCC2)n1)C1(CO)CCN(C(=O)OC(C)(C)C)C1 (single isomer, unassigned) [Example 26] , Ki observed: < 0.018 nM
